- study_target: human RORgT (Homo sapiens, UniProt P51449)
- assay_info: RORgT Gal4 Luciferase Reporter Gene Assay
- condition_description: engineered Jurkat cells overexpressing RORgT (LBD or full length) fused with Gal4 Luc reporter; 18 hours incubation
pEC50: −log10 of the molar value.
assay_metric: pEC50

As a guide, the following entries are already answered.
>>> obs_value("O=C(C1CCS(=O)(=O)CC1)N1CCC(c2ccc(OCc3ccc(F)cc3Cl)cc2)(S(=O)(=O)c2ccccc2)C1 (stereo not shown)")
6.46
>>> obs_value("O=C(Cn1ccnn1)N1CCC(c2ccc(OCc3ccccc3)cc2)(S(=O)(=O)c2ccc(F)cc2)C1 (stereo not shown)")
6.28
>>> obs_value("O=C(N1CC[C@](c2ccc(OCc3c(Cl)cccc3C(F)(F)F)cc2)(S(=O)(=O)c2ccc(F)cc2)C1)C1(O)CCS(=O)(=O)CC1")
7.38
>>> obs_value("O=C(C1CCS(=O)(=O)CC1)N1CCC(c2ccc(OCc3ccccc3C(F)(F)F)cc2)(S(=O)(=O)c2ccccc2)C1 (stereo not shown)")
7.08
>>> obs_value("O=S(=O)(c1ccccc1)C1(c2ccc(OCc3ccccc3F)cc2)CCCC1")
6.69
>>> obs_value("O=C(O)[C@H]1CC[C@H](C(=O)N2CC[C@](c3ccc(OCc4c(Cl)cccc4Cl)cc3)(S(=O)(=O)c3ccc(F)cc3)C2)CC1")
7.24
>>> obs_value("C[C@H](Oc1ccc([C@]2(S(=O)(=O)c3ccc(F)cc3)CCN(C(=O)C3CCS(=O)(=O)CC3)C2)cc1)c1ccccc1")
7.11
>>> obs_value("O=C(O)[C@H]1CC[C@H](C(=O)N2CC[C@](c3ccc(OCc4c(F)cccc4C(F)(F)F)cc3)(S(=O)(=O)c3ccc(F)cc3)C2)CC1")
7.33

A: O=C(N1CC[C@](c2ccc(OCc3c(F)cccc3C(F)(F)F)cc2)(S(=O)(=O)c2ccc(F)cc2)C1)C1(O)CCS(=O)(=O)CC1
B: O=C(O)[C@H]1CC[C@H](C(=O)N2CC[C@](c3ccc(OCc4c(Cl)cccc4C(F)(F)F)cc3)(S(=O)(=O)c3ccc(F)cc3)C2)CC1
Enquiry: Recorded pEC50 values differ for A and B ; which one is higher? To answer, give the label that identifies your chosen option.
Return: A
(A: 7.85, B: 6.53)

----------
- study_target: human RORgT (Homo sapiens)
- Sequence (P51449 267-516): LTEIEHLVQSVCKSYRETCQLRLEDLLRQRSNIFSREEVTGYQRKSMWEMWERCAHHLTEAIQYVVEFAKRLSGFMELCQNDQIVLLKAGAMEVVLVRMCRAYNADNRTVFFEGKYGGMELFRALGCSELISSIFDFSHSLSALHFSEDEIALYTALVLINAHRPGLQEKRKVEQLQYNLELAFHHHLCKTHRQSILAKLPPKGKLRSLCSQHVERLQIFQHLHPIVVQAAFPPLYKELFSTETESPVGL
- assay_info: RORgT Gal4 Luciferase Reporter Gene Assay
- condition_description: engineered Jurkat cells overexpressing RORgT (LBD or full length) fused with Gal4 Luc reporter; 18 hours incubation
pEC50: −log10 of the molar value.
assay_metric: pEC50

As a guide, the following entries are already answered.
>>> obs_value("NC(=O)[C@H]1CC[C@H](C(=O)N2CC[C@](c3ccc(OCc4c(F)cccc4C(F)(F)F)cc3)(S(=O)(=O)c3ccc(F)cc3)C2)CC1")
6.71
>>> obs_value("O=S(=O)(c1cccc(Cl)c1)C1(c2ccc(OCc3ccccc3)cc2)CCCC1")
6.62
>>> obs_value("O=C(O)[C@H]1CC[C@H](C(=O)N2CCC(c3ccc(OCc4c(Cl)cccc4Cl)cc3)(S(=O)(=O)c3ccccc3)C2)CC1 (some centres unmarked)")
6.26
>>> obs_value("O=C(C1CCS(=O)(=O)CC1)N1CCC(c2ccc(OCc3ccccc3Cl)cc2)(S(=O)(=O)c2ccccc2)C1 (centres unmarked)")
6.73

I: O=C(C1CCS(=O)(=O)CC1)N1CCC(c2ccc(OCc3c(F)cccc3Cl)cc2)(S(=O)(=O)c2ccccc2)C1 (centres unmarked)
II: NC(=O)N1CCC(C(=O)N2CCC(c3ccc(OCc4c(Cl)cccc4Cl)cc3)(S(=O)(=O)c3ccccc3)C2)CC1 (centres unmarked)
III: O=C(Cc1ccncc1)N1CCC(c2ccc(OCc3ccccc3)cc2)(S(=O)(=O)c2cccc(C(F)(F)F)c2)C1 (centres unmarked)
IV: O=S(=O)(c1ccc(F)cc1)C1(c2ccc(OCCc3ccccc3)cc2)CCCC1
Enquiry: Arrange these 4 compounds in increasing order of pEC50. Provide your answer as the labels ordered per the instruction.
Return: III, II, IV, I

----------
- study_target: human RORgT (Homo sapiens)
- assay_info: RORgT Gal4 Luciferase Reporter Gene Assay
- condition_description: engineered Jurkat cells overexpressing RORgT (LBD or full length) fused with Gal4 Luc reporter; 18 hours incubation
pEC50: −log10 of the molar value.
assay_metric: pEC50

>>> obs_value("O=C(Cc1ccncc1)N1CCC(c2ccc(OCc3c(Cl)cccc3Cl)cc2)(S(=O)(=O)c2ccccc2)C1 (stereo not shown)")
7.11

P: O=C(C1CCS(=O)(=O)CC1)N1CC[C@](c2ccc(OCc3c(Cl)cccc3Cl)cc2)(S(=O)(=O)c2ccccc2)C1
Q: O=S(=O)(c1ccccc1)C1(c2ccc(OCc3ccc(F)cc3)cc2)CCCC1
R: O=S(=O)(c1ccccc1)C1(c2ccc(OCC3CCCCC3)cc2)CCCC1
Enquiry: Arrange these 3 molecules in increasing order of pEC50. Provide your answer as the labels ordered per the instruction.
Return: R, Q, P

----------
- study_target: human RORgT (Homo sapiens)
- assay_info: RORgT Gal4 Luciferase Reporter Gene Assay
- condition_description: engineered Jurkat cells overexpressing RORgT (LBD or full length) fused with Gal4 Luc reporter; 18 hours incubation
assay_metric: EC50 (nM)

As a guide, the following entries are already answered.
>>> obs_value("O=C(O)[C@H]1CC[C@H](C(=O)N2CC[C@](c3ccc(OCc4c(F)cccc4C(F)(F)F)cc3)(S(=O)(=O)c3ccccc3)C2)CC1 [Example 41]")
88
>>> obs_value("O=C1NC(=O)C(CC(=O)N2CCC(c3ccc(OCc4ccccc4)cc3)(S(=O)(=O)c3ccc(F)cc3)C2)S1 (stereo not shown) [Example 20]")
810
>>> obs_value("O=C(C1CCS(=O)(=O)CC1)N1CCC(c2ccc(OCc3c(Cl)cccc3Cl)cc2)(S(=O)(=O)c2ccccc2)C1 (stereo not shown) [Example 23]")
46
>>> obs_value("O=S(=O)(c1ccccc1)C1(c2ccc(OCc3cccc(F)c3)cc2)CCCC1 [Example 11]")
397
>>> obs_value("O=S(=O)(c1ccc(F)cc1)C1(c2ccc(OCc3ccccc3F)cc2)CCCC1 [Example 7]")
723

A: NC(=O)[C@H]1CC[C@H](C(=O)N2CC[C@](c3ccc(OCc4c(Cl)cccc4C(F)(F)F)cc3)(S(=O)(=O)c3ccc(F)cc3)C2)CC1 [Example 45]
B: O=C(C1CCS(=O)(=O)CC1)N1CC[C@](c2ccc(OCc3c(Cl)cccc3Cl)cc2)(S(=O)(=O)c2ccc(F)cc2)C1 [Example 36]
Enquiry: Recorded EC50 values differ for A and B ; which one is higher? To answer, give the label that identifies your chosen option.
Return: A
(A: 351 nM, B: 17 nM)

----------
- study_target: human RORgT (Homo sapiens)
- assay_info: RORgT Gal4 Luciferase Reporter Gene Assay
- condition_description: engineered Jurkat cells overexpressing RORgT (LBD or full length) fused with Gal4 Luc reporter; 18 hours incubation
assay_metric: EC50 (nM)

>>> obs_value("O=C(N1CC[C@](c2ccc(OCc3c(F)cccc3C(F)(F)F)cc2)(S(=O)(=O)c2ccccc2)C1)C1(O)CCS(=O)(=O)CC1")
18
>>> obs_value("O=C(C1CCS(=O)(=O)CC1)N1CCC(c2ccc(OCc3c(F)cccc3C(F)(F)F)cc2)(S(=O)(=O)c2ccccc2)C1 (stereo not shown)")
28
>>> obs_value("O=S(=O)(c1ccc(Cl)cc1)C1(c2ccc(OCc3ccccc3)cc2)CCCC1")
212

I: O=C(O)[C@H]1CC[C@H](C(=O)N2CC[C@](c3ccc(OCc4c(Cl)cccc4Cl)cc3)(S(=O)(=O)c3ccccc3)C2)CC1
II: O=C(C1CCS(=O)(=O)CC1)N1CCC(c2ccc(OCc3c(F)ccc(F)c3Cl)cc2)(S(=O)(=O)c2ccccc2)C1 (stereo not shown)
III: O=S(=O)(c1ccccc1)C1(c2ccc(OCCC3CC3)cc2)CCCC1
Enquiry: Arrange these 3 compounds in increasing order of EC50. Provide your answer as the labels ordered per the instruction.
Return: II, I, III
(II: 109 nM, I: 275 nM, III: 423 nM)

----------
- study_target: human RORgT (Homo sapiens)
- Construct: expressed in transfected cells; host or cells: engineered Jurkat cells (Jurkat pEx/Gal/hRORγ CLBD/HYG pG5luc/blast)
- Sequence (P51449 267-516): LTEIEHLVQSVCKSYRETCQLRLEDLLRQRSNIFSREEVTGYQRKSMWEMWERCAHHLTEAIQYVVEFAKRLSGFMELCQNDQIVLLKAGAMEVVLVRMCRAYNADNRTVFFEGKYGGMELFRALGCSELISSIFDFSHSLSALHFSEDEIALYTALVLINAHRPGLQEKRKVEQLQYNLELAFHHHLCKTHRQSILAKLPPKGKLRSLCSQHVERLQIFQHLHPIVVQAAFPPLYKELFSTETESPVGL
- assay_info: RORgT Gal4 Luciferase Reporter Gene Assay
- Assay type: cell-based
- condition_description: engineered Jurkat cells overexpressing RORgT (LBD or full length) fused with Gal4 Luc reporter; 18 hours incubation
pEC50: −log10 of the molar value.
assay_metric: pEC50

>>> obs_value("O=C(C1CCS(=O)(=O)C1)N1CCC(c2ccc(OCc3ccccc3)cc2)(S(=O)(=O)c2ccc(F)cc2)C1 (stereo not drawn)")
6.17
>>> obs_value("O=S(=O)(c1cccc(C(F)(F)F)c1)C1(c2ccc(OCc3ccccc3)cc2)CCCC1")
6.42
>>> obs_value("O=C(C1CCS(=O)(=O)CC1)N1CCC(c2ccc(OCc3ccccc3)cc2)(S(=O)(=O)c2cccc(C(F)(F)F)c2)C1 (stereo not drawn)")
6.34
